Kindly supply the reported inhibition of SARS-CoV-2 cytopathic effect values for the records listed here.
System: Vero E6 infected with SARS-CoV-2
procedure summary: inhibition of SARS-CoV-2 cytopathic effect; higher = more antiviral protection, active = above 15
run conditions: 1 nM; 48 h
Answers are plain numbers, in %.

Worked cases, answers included:
compound	reported result
N[C@@H]1CONC1=O	-2.12
O=[N+]([O-])c1nccn1CC(O)CN1CCCCC1 (stereo not given)	0.08
NCC(=O)N1C[C@H](NC(=O)c2ccccc2)C[C@H]1C(=O)O [danegaptide]	-2
O=C(Nc1cccnn1)N1CCC(=Cc2cccc(Oc3ccc(C(F)(F)F)cn3)c2)CC1	0.89
CC(=O)OCC1=C(C(=O)O)N2C(=O)[C@@H](NC(=O)CS/C(=N/C(C)C)NC(C)C)[C@H]2SC1	-0.52
O=[N+]([O-])c1ccc(O)c([N+](=O)[O-])c1	2.74

Hey, can you go through the list below and give me inhibition of SARS-CoV-2 cytopathic effect for every item?
1. Cc1cc(N2CCCCC2)nc2ccccc12
2. CO/N=C(\C(=O)N[C@@H]1C(=O)N2C(C(=O)[O-])=C(C[n+]3ccn4ncccc43)CS[C@H]12)c1nsc(N)n1
3. CCOC(=O)[C@]12CC1/C(=N\O)c1ccccc1O2 (stereo not given in full)
4. Cc1cccc(-c2nn3c(c2-c2ccnc4ccc(C(N)=O)cc24)CCC3)n1

output:
1. -1.33
2. -1.88
3. 1.49
4. 0.85

----------
Kindly supply the reported inhibition of SARS-CoV-2 cytopathic effect values for the records listed here.
Test system: Vero E6 infected with SARS-CoV-2
procedure summary: inhibition of SARS-CoV-2 cytopathic effect; higher = more antiviral protection, active = above 15
run conditions: 833.33 nM; 48 h
Answers are plain numbers, in %.

Hey, can you go through the list below and give me inhibition of SARS-CoV-2 cytopathic effect for every item?
1. NC(=O)C(c1ccccc1)(c1ccccc1)[C@@H]1CCN(CCc2ccc3c(c2)CCO3)C1 [darifenacin]
2. COC(=O)N[C@H](C(=O)N1CCC[C@H]1C(=O)Nc1ccc([C@@H]2CC[C@@H](c3ccc(NC(=O)[C@@H]4CCCN4C(=O)[C@@H](NC(=O)OC)C(C)C)cc3)N2c2ccc(C(C)(C)C)cc2)cc1)C(C)C [ombitasvir]
3. O[C@@H]1[C@H](O)[C@@H](CCl)O[C@H]1n1cnc2c(NC3CC4CCC3C4)ncnc21 (mixture of isomers) [5'-chloro-5'-deoxy-ENBA-(+/-)]
4. CCc1ccc(CCOc2ccc(CC3SC(=O)NC3=O)cc2)nc1 (centres undefined) [pioglitazone]
5. Cc1cnc(CNC(=O)c2c(=O)c3ccc(N4CCCN(C)CC4)nc3n3c2sc2ccccc23)cn1
6. CC(CC(C(N)=O)(c1ccccc1)c1ccccc1)N(C)C (centres undefined) [aminopentamide]

output:
1: 0.42; 2: -1.11; 3: 3.77; 4: -8.11; 5: 4.48; 6: 0.24

----------
Tested on: Vero E6 infected with SARS-CoV-2
procedure summary: inhibition of SARS-CoV-2 cytopathic effect; higher = more antiviral protection, active = above 15
run conditions: 10000 nM; 48 h
Kindly supply the reported inhibition of SARS-CoV-2 cytopathic effect values for the records listed here.
Answers are plain numbers, in %.

Worked cases, answers included:
compound	units label	reported result
Nc1ccc(/N=N/c2ccccc2)c(N)n1	%	0.27
CN(C)/C=N/c1c(I)cc(I)c(CCC(=O)O)c1I	%	-2.24
O=C(NC[C@H]1CN(c2ccc(N3CCOCC3=O)cc2)C(=O)O1)c1ccc(Cl)s1	%	3.09
CC(C)(C)C(=O)NCCCC(=O)O	%	-0.03

Hey, can you go through the list below and give me inhibition of SARS-CoV-2 cytopathic effect for every item?
1. COc1ccc(CCN)cc1OC
2. CC1=C(CC(=O)O)c2cc(F)ccc2/C1=C\c1ccc([S+](C)[O-])cc1 (stereo not drawn)
3. CN(C)CCCC1(c2ccc(F)cc2)OCc2cc(C#N)ccc21 (stereo not drawn)
4. CO/N=C1/C[C@@H](C(=O)NC[C@@H](O)c2ccccc2)N(C(=O)c2ccc(-c3ccccc3C)cc2)C1

output:
11.1
-2.36
-4.99
-1.5
